test-description: log P determination by HPLC (EEC Directive 79/831 Annex V.A8, gradient method)
Assay type: physicochemical
quantity: Physical data (logP)
// return a plain number; no unit text

Below are worked cases with known answers.
O=C(/C=C/c1c(-c2ccccc2Cl)nc2sc(C(F)(F)F)nn12)NOCC1CC1 [Example 0211]    3.18
CC(NC(=O)/C=C/c1c(-c2ccc(Cl)cc2)nc2sc(C(F)(F)F)nn12)c1ccccn1 (stereo not drawn) [Example 0052]    2.77

Turning now to a further record.
Task item: Need Physical data (logP) of COCC(C)NC(=O)/C=C/c1c(-c2cccc(Cl)c2)nc2sc(C(F)(F)F)nn12 (stereo not drawn) [Example 0089] , thanks.
Reply: 3.46

---

test-description: log P determination by HPLC (EEC Directive 79/831 Annex V.A8, gradient method)
Type: physicochemical
condition-summary: HPLC, gradient method, acetonitrile/0.1% strength aqueous phosphoric acid or formic acid; read-out: Physical data: log P
Reported chromatographic logP by item:
Lab note: jot the number down without any unit.

Below: 2 compounds and their reported chromatographic logP.
CC(C)C(C)NC(=O)/C=C/c1c(-c2ccc(F)cc2Cl)nc2sc(C(F)(F)F)nn12 (stereo not drawn)    3.9
Cc1ccccc1-c1nc2sc(C(F)(F)F)nn2c1/C=C/C(=O)NC(C)C(C)C (stereo not drawn)    3.9

As a next step, examine the compound that follows.
Task item: What value of chromatographic logP has been recorded for this entry: CCCC(C)NC(=O)/C=C/c1c(-c2ccc(F)cc2Cl)nc2sc(C(F)(F)F)nn12 (stereo not drawn)
Reply: 4.02

---

test-description: log P determination by HPLC (EEC Directive 79/831 Annex V.A8, gradient method)
Assay type: physicochemical
quantity: Physical data: logP
// return a plain number; no unit text

// known answers, use as guide
Cc1csc2nc(-c3ccccc3Cl)c(/C=C/C(=O)NC(C)C(F)(F)F)n12 (centres unmarked) [Example 0883]    2.59
CC(C)NC(=O)/C=C/c1c(-c2ccccc2Cl)nc2sc(C(F)(F)F)cn12 [Example 0906]    3.23

Task item: Value lookup for Physical data: logP; key = CCC(C)NC(=O)/C=C/c1c(-c2ccccc2Cl)nc2sc(COC)nn12 (centres unmarked) [Example 0825]
Reply: 2.71

Task item: And what about the molecule COc1ccc(-c2nc3sc(C(F)(F)F)nn3c2/C=C/C(=O)NC(C)c2ccccc2)cc1OC (centres unmarked) [Example 0683] ?
Reply: 3.5

Task item: // same read-out, input: CC(NC(=O)/C=C/c1c(-c2ccc(Cl)nc2)nc2sc(C(F)(F)F)nn12)C(F)(F)F (racemic) [Example 0935]
Reply: 3.32

Task item: Check CC(C)(C)c1nn2c(/C=C/C(=O)NCC(F)(F)C(F)(F)C(F)(F)F)c(-c3ccccc3Cl)nc2s1 [Example 0815] too.
Reply: 4.48

Task item: Would you mind doing Cc1csc2nc(-c3ccccc3Cl)c(/C=C/C(=O)NC(C(C)C)C(F)(F)F)n12 (centres unmarked) [Example 0884] as well?
Reply: 3.11

Task item: # iterate: CC(C)NC(=O)/C=C/c1c(-c2ccccc2Cl)nc2sc(C(F)(F)C(F)(F)F)nn12 [Example 0959]
Reply: 3.66

Task item: Could you do the same for CC(C)C(NC(=O)/C=C/c1c(-c2ccccc2Cl)nc2sc(C(C)(C)C)nn12)C(F)(F)F (centres unmarked) [Example 0796] , please?
Reply: 4.46

Task item: Request: CCC(NC(=O)/C=C/c1c(-c2ccc(OC)c(OC)c2)nc2sc(C(F)(F)F)nn12)c1ccccc1 (centres unmarked) [Example 0684]
Reply: 3.76

Task item: Moving on to the next molecule: CC(C)C(NC(=O)C=Cc1c(-c2nccs2)nc2sc(C(F)(F)C(F)(F)F)nn12)C(F)(F)F (centres unmarked) [Example 0988]
Reply: 4.35
